Entry source: patent US6245799A

# assay-system: Human 5-HT Transporter (Homo sapiens)
# Construct: endogenous in cells; host or cells: Jar cells (human carcinoma cell line), treated with staurosporine to raise expression
# Sequence (P31645 whole entry): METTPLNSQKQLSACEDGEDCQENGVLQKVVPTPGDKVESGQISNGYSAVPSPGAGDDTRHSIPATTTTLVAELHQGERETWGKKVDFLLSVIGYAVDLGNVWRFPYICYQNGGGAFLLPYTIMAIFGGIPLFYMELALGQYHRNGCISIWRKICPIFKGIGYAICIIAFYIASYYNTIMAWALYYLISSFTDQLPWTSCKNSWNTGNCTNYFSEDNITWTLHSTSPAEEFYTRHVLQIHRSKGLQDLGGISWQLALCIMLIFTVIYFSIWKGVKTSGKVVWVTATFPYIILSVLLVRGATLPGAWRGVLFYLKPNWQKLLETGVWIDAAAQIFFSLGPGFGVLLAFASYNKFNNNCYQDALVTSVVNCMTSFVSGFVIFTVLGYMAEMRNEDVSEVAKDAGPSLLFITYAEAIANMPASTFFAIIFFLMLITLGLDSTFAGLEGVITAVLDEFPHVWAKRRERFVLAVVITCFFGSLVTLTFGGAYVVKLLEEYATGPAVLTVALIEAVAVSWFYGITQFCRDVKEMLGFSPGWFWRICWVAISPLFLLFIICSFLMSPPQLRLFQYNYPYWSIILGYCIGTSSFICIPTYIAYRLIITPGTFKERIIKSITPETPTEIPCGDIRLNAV
# measurement-notes: Inhibition of ^3 H-5-HT Uptake by cells Possessing the Human 5-HT Transporter (HC 5HT Transporter)
# Assay type: cell-based
# settings: Jar cells (human carcinoma), staurosporine treated; ^3 H-5-HT uptake, 37° C., 5 min; n = 1; read-out: HC 5HT Transporter IC50
pIC50: −log10 of the molar value.
Given measured pIC50, output Condition met if it is greater than or equal to 6 and Condition not met if not.

> print(dat)
                                   compound         class.name
1  Fc1cccc(NC2CN([C@H]3CC[C@@H](c4c[nH]c5ccc(F)cc54)CC3)C2)c1  Condition not met
2  COc1ccccc1NC1CN([C@H]2CC[C@H](c3c[nH]c4ccc(F)cc43)CC2)C1      Condition met
3  N#Cc1ccc2[nH]cc([C@H]3CC[C@H](N4CC(Oc5cccc(F)c5)C4)CC3)c2c1      Condition met
4  N#Cc1ccc2[nH]cc([C@H]3CC[C@@H](N4CC(Oc5cccc(F)c5)C4)CC3)c2c1      Condition met
5  COc1cccc(OC2CN([C@H]3CC[C@@H](c4c[nH]c5ccc(F)cc54)CC3)C2)c1  Condition not met
6  Fc1cccc(OC2CN(C3CCC(c4c[nH]c5cc(F)ccc45)CC3)C2)c1 (single isomer, unassigned) [Example 10b]  Condition not met
